meta.source: PubChem BioAssay

Target: Pantothenate synthetase (Mycobacterium tuberculosis (strain ATCC 25618 / H37Rv)) (UniProt P9WIL5)
Sequence (P9WIL5 whole entry, looked up): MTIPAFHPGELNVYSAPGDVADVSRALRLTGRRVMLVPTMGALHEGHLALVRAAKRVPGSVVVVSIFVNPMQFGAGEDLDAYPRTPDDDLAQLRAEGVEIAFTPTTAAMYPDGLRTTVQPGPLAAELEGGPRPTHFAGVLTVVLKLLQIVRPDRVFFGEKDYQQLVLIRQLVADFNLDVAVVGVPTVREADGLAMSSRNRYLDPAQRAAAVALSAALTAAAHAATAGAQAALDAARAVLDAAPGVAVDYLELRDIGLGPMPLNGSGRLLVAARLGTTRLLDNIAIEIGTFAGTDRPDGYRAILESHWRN
Experiment: Coupled enzyme confirmation of inhibitors against recombinant Mtb PanC (AID 375);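 further: 0% = full reaction with vehicle and 100% = no enzyme background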
Settings: coupled enzyme assay; at 10 µM, stronger effect = higher value
measurement.type: inhibition (%)
Lab book: enter the figure in %, no units written.

Below: 5 compounds and their reported inhibition.
>  <compound>
Cc1cccc(N=C2NC(=O)CS2)c1C

>  <inhibition / %>
0

$$$$
>  <compound>
CCN(CC)CCN1C(=O)C(O)=C(C(=O)c2cccs2)C1c1ccc(C)o1 (stereo not given)

>  <inhibition / %>
0

$$$$
>  <compound>
Cc1ccc(-c2cc(C(=O)Nc3cc(C)ccc3C)[nH]n2)c(O)c1

>  <inhibition / %>
0

$$$$
>  <compound>
Nc1ncnc(Nc2ccccc2C(F)(F)F)n1

>  <inhibition / %>
0

$$$$
>  <compound>
COCCCNCC(=O)Nc1ccc(OC(F)(F)F)cc1

>  <inhibition / %>
3

$$$$

GET /value?item= CN(C)c1ccnc(NCc2ccccc2)c1C#N &field=inhibition returns 0

GET /value?item= CCOc1ccc(N(CC(=O)Nc2ccc(C)c(C)c2)S(=O)(=O)c2c(C)noc2C)cc1 &field=inhibition returns 0

GET /value?item= CCS(=O)(=O)N1CCC(C(=O)NCCc2ccc(C)cc2)CC1 &field=inhibition returns 0

GET /value?item= COc1ccccc1OC(=O)c1ccc2nsnc2c1 &field=inhibition returns 0

GET /value?item= CCCC(c1nnnn1Cc1ccc(OC)cc1)N1CCN(c2ccccc2OC)CC1 (stereo not given) &field=inhibition returns 0

GET /value?item= O=C(NCc1ccccn1)c1ccccc1Cl &field=inhibition returns 0

GET /value?item= COc1cc2c(cc1NC(=O)CN1CCN(S(=O)(=O)c3ccc(F)cc3)CC1)oc1ccccc12 &field=inhibition returns 0

GET /value?item= Oc1ccc(-c2n[nH]c(=S)n2Cc2ccccc2)cc1 &field=inhibition returns 0

GET /value?item= COc1oc(-c2ccccc2)nc1C(F)(F)F &field=inhibition returns 0

GET /value?item= CC(C)(C)NC(=O)Cn1c(=O)oc2ccc(Cl)cc21 &field=inhibition returns 0

GET /value?item= CCOC(=O)c1c(NC(=O)c2nn(CC)cc2Br)c(C#N)cn1-c1ccccc1 &field=inhibition returns 0
